Tested on: RAW-Dual (murine macrophage reporter line)
Assay: IRF reporter (Lucia luciferase) activity fold change vs agonist alone; higher = enhanced IRF activity
Settings: modulator concentration 10 µM; agonist: MPLA […]
The label depends only on IRF reporter: met if it is at least 1, not met if it is smaller.

Study these solved cases before continuing.
> print(dat)
                                   molecule  class.name
1  Cc1nc2n(c(=O)c1CCN1CCC(c3noc4cc(F)ccc34)CC1)CCCC2         met
2  CCOc1ccc(CC(=O)N2C3C=CCC2CC3)cc1 (stereo unspecified)         met

## Task Given COc1ccccc1OCC(O)CN1CCN(CC(=O)Nc2c(C)cccc2C)CC1.Cl.Cl (stereo unspecified) , state whether its IRF reporter is at least 1.
## Result not met

###

System: RAW-Dual (murine macrophage reporter line)
Test: NF-kB reporter (SEAP) activity fold change vs agonist alone; higher = enhanced NF-kB activity
Conditions: modulator concentration 10 µM; agonist: LPS 0.1 ug/mL
reported property: NF-kB reporter
Number only, no unit.

> print(dat)
                                   compound                              study.system  reported.property  measured.result
1  Cl.NC1=NCC2c3ccccc3Cc3ccccc3N12 (centres undefined)  RAW-Dual (murine macrophage reporter line)     NF-kB reporter             1.09

## Task Identify NF-kB reporter associated with the compound CCn1ccc(C(=O)N2CCN(c3cc(C(F)(F)F)nc(C)n3)CC2)n1
## Result 1.07

## Task Identify NF-kB reporter associated with the compound CC(=NNC(=O)CSc1nc2ccccc2n1Cc1ccccc1)c1ccc(Cl)cc1
## Result 0.923

## Task Identify NF-kB reporter associated with the compound CCN(CCO)CCCC(C)Nc1ccnc2cc(Cl)ccc12.O=S(=O)(O)O (centres undefined)
## Result 0.984

## Task Identify NF-kB reporter associated with the compound O=C(Oc1coc(CSc2ncccn2)cc1=O)c1ccc([N+](=O)[O-])cc1
## Result 1.15

## Task Identify NF-kB reporter associated with the compound CCOC(=O)C1=C(C)NC(C)=C(C(=O)OCC)C1c1ccc(Cl)cc1
## Result 0.27

## Task Identify NF-kB reporter associated with the compound CN(C)c1ccc(O)c2c1C[C@H]1C[C@H]3[C@H](N(C)C)C(O)=C(C(N)=O)C(=O)[C@@]3(O)C(O)=C1C2=O.Cl
## Result 0.927

## Task Identify NF-kB reporter associated with the compound COc1cc(-c2nnc(SCc3ccc([N+](=O)[O-])cc3)n2-c2ccccc2)cc(OC)c1OC
## Result 0.942

## Task Identify NF-kB reporter associated with the compound Cc1cc(C)c2c(c1)[C@@H](N(Cc1cc(C(F)(F)F)cc(C(F)(F)F)c1)c1nnn(C)n1)CCCN2C[C@H]1CC[C@H](C(=O)O)CC1
## Result 0.861

###

System: RAW-Dual (murine macrophage reporter line)
Experiment: IRF reporter (Lucia luciferase) activity fold change vs agonist alone; higher = enhanced IRF activity
Conditions: modulator concentration 10 µM; agonist: 3'3'-cGAMP 10 ug/mL
The label depends only on IRF reporter: true (1) if it is at least 0.9, false (0) if it is smaller.

> print(dat)
                                   molecule  class.name
1  Cc1ccccc1C(OCCN(C)C)c1ccccc1.O=C(O)CC(O)(CC(=O)O)C(=O)O (configuration not stated)   false (0)
2     COc1cc(C=NNc2ccc(C(=O)O)cc2)cc(Br)c1O   false (0)
3  Cc1cc(O)c(C(C)C)cc1NC(=O)c1cc(C(C)(C)C)oc1C   false (0)

## Task Given CCC(=O)Nc1ccc(NC(=O)c2ccccc2OC)cc1 , state whether its IRF reporter is at least 0.9.
## Result true (1)

## Task Given COc1ccc2cc1Oc1ccc(cc1)C[C@H]1c3c(cc4c(c3Oc3cc5c(cc3OC)CCN(C)[C@@H]5C2)OCO4)CCN1C , state whether its IRF reporter is at least 0.9.
## Result false (0)

## Task Given CNc1ncnc2c1ncn2[C@@H]1O[C@H](CO)[C@@H](O)[C@H]1O , state whether its IRF reporter is at least 0.9.
## Result true (1)

## Task Given O=C(Nc1ccc(NS(=O)(=O)c2ccc(Cl)cc2)cc1)c1ccccc1 , state whether its IRF reporter is at least 0.9.
## Result true (1)

## Task Given CCOCC(=O)Nc1nc2c(C(F)(F)F)cccc2s1 , state whether its IRF reporter is at least 0.9.
## Result true (1)

## Task Given CN1CCN(C2=NC(=O)C(=Cc3ccc(Cl)cc3Cl)S2)CC1 , state whether its IRF reporter is at least 0.9.
## Result true (1)
